Assay system KAT5 (Homo sapiens, UniProt Q92993); read-out recorded as IC50.

Example compounds with recorded IC50:
[[record]]
compound = "Cc1cc(-c2cccc(C(=O)OCc3ccccc3)c2)cc(C(=O)NNS(=O)(=O)C2CCOCC2)c1F [Compound I-443]"
tested_target = "KAT5 (Homo sapiens, UniProt Q92993)"
endpoint_value = "≤ 10 µM"

[[record]]
compound = "COc1ccccc1-c1cc(C)c(F)c(C(=O)NNS(=O)(=O)C2CCCCC2)c1 [Compound I-302]"
tested_target = "KAT5 (Homo sapiens, UniProt Q92993)"
endpoint_value = "50 to 100 µM"


## Task Report IC50 for Cc1cc(-c2cccc(F)c2)cc(C(=O)NNS(=O)(=O)CC2CCCN(C(=O)C(C)C)C2)c1F (centres unmarked) [Compound I-292] tested on KAT5 (Homo sapiens, UniProt Q92993).
Sequence (Q92993 with tags, fused parts or gaps): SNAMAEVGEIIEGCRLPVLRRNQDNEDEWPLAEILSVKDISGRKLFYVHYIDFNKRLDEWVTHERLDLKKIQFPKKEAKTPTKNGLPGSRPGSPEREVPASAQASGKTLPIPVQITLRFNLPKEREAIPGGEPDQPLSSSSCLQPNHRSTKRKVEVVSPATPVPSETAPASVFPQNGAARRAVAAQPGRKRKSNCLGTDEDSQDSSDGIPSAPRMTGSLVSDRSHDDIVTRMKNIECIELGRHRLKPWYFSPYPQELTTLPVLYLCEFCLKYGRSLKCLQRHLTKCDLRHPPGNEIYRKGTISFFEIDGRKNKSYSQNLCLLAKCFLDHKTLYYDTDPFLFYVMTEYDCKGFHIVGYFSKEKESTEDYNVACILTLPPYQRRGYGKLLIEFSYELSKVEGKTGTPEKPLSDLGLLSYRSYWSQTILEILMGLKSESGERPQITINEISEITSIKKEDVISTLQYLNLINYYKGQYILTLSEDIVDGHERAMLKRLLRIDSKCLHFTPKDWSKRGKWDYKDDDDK
## Result ≤ 10 µM

###

- tested-target: KAT6A (Homo sapiens, UniProt Q92794)
- Sequence (Q92794 with tags, fused parts or gaps): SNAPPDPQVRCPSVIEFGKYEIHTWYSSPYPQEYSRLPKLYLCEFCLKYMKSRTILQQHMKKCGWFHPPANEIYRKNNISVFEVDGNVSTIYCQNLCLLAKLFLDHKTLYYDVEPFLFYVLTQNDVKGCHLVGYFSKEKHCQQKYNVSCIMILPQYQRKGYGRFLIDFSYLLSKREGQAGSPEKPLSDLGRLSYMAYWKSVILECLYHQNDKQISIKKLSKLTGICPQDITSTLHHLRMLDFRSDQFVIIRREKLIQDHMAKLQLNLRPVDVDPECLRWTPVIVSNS
pIC50: −log10 of the molar value.
observable: pIC50

[[record]]
compound = "O=C(NS(=O)(=O)Nc1ccccc1)c1c(F)ccc(-c2ccccc2)c1F [Compound I-212]"
observable = "pIC50"
endpoint_value = "4.00 to 4.30"

[[record]]
compound = "Cc1cc(-c2ccccc2)cc(C(=O)NNS(=O)(=O)C2CC3CCC(C2)N3)c1F (centres unmarked) [Compound I-184]"
observable = "pIC50"
endpoint_value = "< 4.00"

[[record]]
compound = "Cn1ccnc1-c1ccc(F)c(C(=O)NNS(=O)(=O)c2ccccc2)c1F [Compound I-172]"
observable = "pIC50"
endpoint_value = "4.30 to 5.00"


## Task State the recorded pIC50 for this entry: Cc1cccc(S(=O)(=O)NNC(=O)c2cc(-c3ccccc3)cc(C)c2F)c1 [Compound I-188]
## Result ≥ 5.00

## Task Then Cc1cc(C2CCN(C)CC2)cc(C(=O)NNS(=O)(=O)C2CCCCC2)c1F [Compound I-338] ?
## Result < 4.00

###

Assay system UniProt:Q92794; read-out recorded as IC50.

[[record]]
compound = "Cc1cc(-c2ccccc2)cc(C(=O)N2CCC(S(=O)(=O)c3ccccc3)C2)c1F (stereo not drawn)"
observable = "IC50"
endpoint_value = "> 100 µM"

[[record]]
compound = "Cc1cc(F)c(-c2ccccc2)cc1C(=O)NNS(=O)(=O)c1ccccc1"
observable = "IC50"
endpoint_value = "> 100 µM"


Then this compound:
## Task State the recorded IC50 for this entry: O=C(NNS(=O)(=O)c1ccccc1)c1cnn(-c2ccccc2)c1
## Result > 100 µM

###

Assay system KAT6A (Homo sapiens, UniProt Q92794); read-out recorded as IC50.

Example compounds with recorded IC50:
[[record]]
compound = "O=C(NNS(=O)(=O)C1CCOCC1)c1cc(CN2CCCCC2)cc(Cl)c1F"
tested_target = "KAT6A (Homo sapiens, UniProt Q92794)"
observable = "IC50"
endpoint_value = "10 to 50 µM"

[[record]]
compound = "Cc1cc(-c2ccccc2)cc(C(=O)Nc2n[nH]c3ncccc23)c1F"
tested_target = "KAT6A (Homo sapiens, UniProt Q92794)"
observable = "IC50"
endpoint_value = "10 to 50 µM"

[[record]]
compound = "Cc1cc(-c2cccc(Cl)c2)cc(C(=O)NNS(=O)(=O)CC2CCCCC2)c1F"
tested_target = "KAT6A (Homo sapiens, UniProt Q92794)"
observable = "IC50"
endpoint_value = "50 to 100 µM"

[[record]]
compound = "Cc1cc(-c2ccccc2)cc(C(=O)NNS(=O)(=O)CC2CCN(CCO)CC2)c1F"
tested_target = "KAT6A (Homo sapiens, UniProt Q92794)"
observable = "IC50"
endpoint_value = "10 to 50 µM"

[[record]]
compound = "Cc1cc(-c2ccccc2)cc(C(=O)NNS(=O)(=O)C(C)C2CCCN(C(=O)OC(C)(C)C)C2)c1F (stereo not shown)"
tested_target = "KAT6A (Homo sapiens, UniProt Q92794)"
observable = "IC50"
endpoint_value = "10 to 50 µM"


## Task State the recorded IC50 for this entry: Cc1cc(-c2ccccc2)cc(C(=O)Nc2nnc3n2CCCC3)c1F
## Result > 100 µM

## Task Then O=C(NNS(=O)(=O)C1CCCCC1)c1cc(-c2ccccc2)cc2[nH]cnc12 ?
## Result 50 to 100 µM

###

Assay system KAT5 (Homo sapiens, UniProt Q92993); read-out recorded as IC50.

[[record]]
molecule = "COc1cc(Cl)c(F)c(C(=O)NNS(=O)(=O)CC2CCOCC2)c1"
tested_target = "KAT5 (Homo sapiens, UniProt Q92993)"
observable = "IC50"
endpoint_value = "10 to 50 µM"

[[record]]
molecule = "Cc1nn(-c2ccccc2)cc1C(=O)NNS(=O)(=O)c1ccccc1"
tested_target = "KAT5 (Homo sapiens, UniProt Q92993)"
observable = "IC50"
endpoint_value = "> 100 µM"

[[record]]
molecule = "O=C(NNS(=O)(=O)CC1CCCN(C(=O)C2CCC2)C1)c1cc(-c2cccc(F)c2)cc(Cl)c1F (centres unmarked)"
tested_target = "KAT5 (Homo sapiens, UniProt Q92993)"
observable = "IC50"
endpoint_value = "≤ 10 µM"


## Task State the recorded IC50 for this entry: Cc1cc(-c2ccccc2)cc(C(=O)NNS(=O)(=O)C2CCN(C(=O)OC(C)(C)C)C2)c1F (centres unmarked)
## Result 10 to 50 µM

## Task Then COc1c(C)cc(-c2ccccc2)cc1C(=O)NNS(=O)(=O)C1CCCCC1 ?
## Result > 100 µM

## Task Then CCc1cc(-c2ccccc2)cc(C(=O)NNS(=O)(=O)c2ccccc2)c1F ?
## Result ≤ 10 µM

## Task Then O=C(NNS(=O)(=O)CC1CCOCC1)c1cc(-c2ccccc2)cc(Cl)c1F ?
## Result ≤ 10 µM

## Task Then CCc1cc(Cl)c(F)c(C(=O)NNS(=O)(=O)C2CCOCC2)c1 ?
## Result > 100 µM

## Task Then Cc1cc(Cl)cc(C(=O)NNS(=O)(=O)C2CCCCC2)c1F ?
## Result 10 to 50 µM

## Task Then Cn1cnc(-c2ccc(F)c(C(=O)NNS(=O)(=O)c3ccccc3)c2F)c1 ?
## Result 10 to 50 µM

## Task Then Cc1cc(-c2ccccc2)cc(C(=O)NNS(=O)(=O)CC2CCCCC2)c1F ?
## Result ≤ 10 µM

## Task Then O=C(NNS(=O)(=O)c1ccccc1)c1cccc2ccccc12 ?
## Result > 100 µM

## Task Then O=C(NNS(=O)(=O)c1cccc(Cl)c1)c1ccccc1F ?
## Result > 100 µM

## Task Then O=C(NNS(=O)(=O)CC1CCCCC1)c1cc(-c2cn3ccccc3n2)cc(Cl)c1F ?
## Result ≤ 10 µM

## Task Then O=C(NNS(=O)(=O)c1ccccc1)c1ccccc1F ?
## Result > 100 µM

###

- tested-target: KAT6A (Homo sapiens)
observable: IC50

Example compounds with recorded IC50:
[[record]]
compound = "O=C(NNCc1ccccc1)c1ccccc1F [Compound I-169]"
tested_target = "KAT6A (Homo sapiens)"
observable = "IC50"
endpoint_value = "> 100 µM"

[[record]]
compound = "O=C(NNS(=O)(=O)c1ccccc1)c1ccccc1Cl [Compound I-149]"
tested_target = "KAT6A (Homo sapiens)"
observable = "IC50"
endpoint_value = "> 100 µM"

[[record]]
compound = "Cn1ncc2c(C(=O)NNS(=O)(=O)c3ccccc3)cc(-c3ccccc3)cc21 [Compound I-20]"
tested_target = "KAT6A (Homo sapiens)"
observable = "IC50"
endpoint_value = "> 100 µM"

[[record]]
compound = "O=C(NNS(=O)(=O)C1CCCCC1)c1cc(-c2ccc(O)cc2)cc(Cl)c1F [Compound I-460]"
tested_target = "KAT6A (Homo sapiens)"
observable = "IC50"
endpoint_value = "10 to 50 µM"

[[record]]
compound = "O=C(NNS(=O)(=O)c1cccc(-c2ccccc2)c1)C1CCCCC1 [Compound I-522]"
tested_target = "KAT6A (Homo sapiens)"
observable = "IC50"
endpoint_value = "> 100 µM"

[[record]]
compound = "O=C(NNS(=O)(=O)CC1CCCCC1)c1cc(Cl)cc(Cl)c1F [Compound I-411]"
tested_target = "KAT6A (Homo sapiens)"
observable = "IC50"
endpoint_value = "10 to 50 µM"

[[record]]
compound = "O=S(=O)(NNc1n[nH]c2c(-c3ccccc3)cccc12)c1ccccc1 [Compound I-50]"
tested_target = "KAT6A (Homo sapiens)"
observable = "IC50"
endpoint_value = "> 100 µM"

[[record]]
compound = "CCN1CCCC(S(=O)(=O)NNC(=O)c2cc(-c3ccccc3)cc(C)c2F)C1 (stereo not shown) [Compound I-99]"
tested_target = "KAT6A (Homo sapiens)"
observable = "IC50"
endpoint_value = "10 to 50 µM"


## Task State the recorded IC50 for this entry: Cc1cc(-c2ccccc2)cc(C(=O)NNS(=O)(=O)CC2CCCN(C)C2)c1F (stereo not shown) [Compound I-337]
## Result 10 to 50 µM

## Task Then O=C(NNS(=O)(=O)c1ccccc1)c1ccccc1F [Compound I-165] ?
## Result 10 to 50 µM

## Task Then Cc1cc(-c2cccc(F)c2F)cc(C(=O)NNS(=O)(=O)C2CCCCC2)c1F [Compound I-381] ?
## Result 10 to 50 µM

## Task Then O=C(NNS(=O)(=O)c1ccccc1)c1ccccc1 [Compound I-159] ?
## Result 50 to 100 µM

## Task Then Cc1cc(-c2cccc(F)c2)cc(C(=O)NNS(=O)(=O)CC2CCCN(C(=O)C3CCC3)C2)c1F (stereo not shown) [Compound I-274] ?
## Result ≤ 10 µM
